system: LOC_OS04G38480-cb003; experiment: thermal shift delta Tm vs DMSO control; higher = stronger stabilization (binding); conditions: 12.5 µM; protein concentration 2 µM;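 further: purified Escherichia coli-expressed rice kinase domain construct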
Sequence (as listed by the source): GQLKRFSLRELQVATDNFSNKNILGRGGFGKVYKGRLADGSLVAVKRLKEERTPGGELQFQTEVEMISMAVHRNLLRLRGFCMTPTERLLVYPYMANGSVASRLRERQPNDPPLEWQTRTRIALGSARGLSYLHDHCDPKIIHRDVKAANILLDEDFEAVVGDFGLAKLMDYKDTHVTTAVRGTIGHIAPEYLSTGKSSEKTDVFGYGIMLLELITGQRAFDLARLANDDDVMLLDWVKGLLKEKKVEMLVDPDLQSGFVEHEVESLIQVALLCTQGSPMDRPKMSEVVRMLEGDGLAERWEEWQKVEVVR
# Lookup of reported thermal shift delta Tm keyed by entry
Respond numerically; units are °C and should not be typed.

(Q) GET /values?readout=thermal shift delta Tm&system=LOC_OS04G38480-cb003&item= Cc1c(CN2CCN(C(=O)[C@H](C)O)CC2)sc2c(N3CCOCC3)nc(-c3cnc(N)nc3)nc12 [Apitolisib (GDC-0980, RG7422)];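 further: purified Escherichia coli-expressed rice kinase domain construct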
(A) 1.12

(Q) Give thermal shift delta Tm (LOC_OS04G38480-cb003) of the following molecule: c1nc2c(NC3CCCCC3)nc(Nc3ccc(N4CCOCC4)cc3)nc2[nH]1 [Reversine]
(A) 3.21

(Q) Param readout= thermal shift delta Tm; system= LOC_OS04G38480-cb003; entry= `NC[C@@](O)(c1ccc(Cl)cc1)c1ccc(-c2cn[nH]c2)cc1` ; returns value.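 Further: purified Escherichia coli-expressed rice kinase domain construct.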
(A) 1.51

(Q) API: value(readout= thermal shift delta Tm, system= LOC_OS04G38480-cb003, query= `CS(=O)(=O)c1ccc(-c2cnc(N)c(C(=O)Nc3ccccc3)n2)cc1` );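 further: purified Escherichia coli-expressed rice kinase domain construct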
(A) 1.11

(Q) Provide value of thermal shift delta Tm for this record tested with LOC_OS04G38480-cb003: `N#Cc1ccc2[nH]c(O)c(-c3ccc(CN4CCOCC4)cn3)c2c1`
(A) -0.4

(Q) Give recorded thermal shift delta Tm with LOC_OS04G38480-cb003 for the following molecule: `COc1ccc(COc2ccc(Cc3cnc(N)nc3N)cc2OC)cc1`
(A) 1.41

(Q) Under LOC_OS04G38480-cb003: thermal shift delta Tm value of `C=CC(=O)N1CCC[C@@H](n2nc(-c3ccc(Oc4ccccc4)cc3)c3c(N)ncnc32)C1` ?
(A) 1.2

The origin of these recorded values is the supplement of paper PMC9694430.
